# procedure_text: General pharmacology screen in rats
# condition_info: rat, in vivo, po, doses given in mg./kg, read-out: ED50 Irritability
quantity_name: TD50

Known results for molecules:
molecule_smiles | TD50
CCn1cc(C(=O)O)c(=O)c2cc3c(cc21)OCO3 | > 324 mg/kg
O=C(O)c1cn(C(F)F)c2cc3c(cc2c1=O)OCO3 | > 324 mg/kg

What value of measured TD50 is listed for CCn1cc(C(=O)O)c(=O)c2ccc(C)nc21 ?
> 324 mg/kg

---

# procedure_text: General pharmacology screen in mice
# condition_info: mouse, in vivo, po, ED50 Irritability; doses given in mg./kg
Can you tell me TD50 for the items I'm about to list?

molecule_smiles | val
CCn1cc(C(=O)O)c(=O)c2cc3c(cc21)OCO3 | 36 mg/kg
O=C(O)c1cn(C(F)F)c2cc3c(cc2c1=O)OCO3 | > 450 mg/kg

What value of measured TD50 is listed for CCn1cc(C(=O)O)c(=O)c2ccc(C)nc21 ?
> 450 mg/kg

---

# procedure_text: General pharmacology screen in mice
# condition_info: mouse, in vivo, po, ED50 Hypotherm.; rectal temperature; doses given in mg./kg
Can you tell me TD50 for the items I'm about to list?

Known results for compounds:
molecule_smiles | quantity_name | val
CCn1cc(C(=O)O)c(=O)c2cc3c(cc21)OCO3 | TD50 | > 450 mg/kg
O=C(O)c1cn(C(F)F)c2cc3c(cc2c1=O)OCO3 | TD50 | > 450 mg/kg

// next entry
What value of measured TD50 is listed for CCn1cc(C(=O)O)c(=O)c2ccc(C)nc21 ?
187 mg/kg

---

# procedure_text: General pharmacology screen in mice
# condition_info: mouse, in vivo, po, ED50 Vert. Bar; vertical bar loss; doses given in mg./kg
Can you tell me TD50 for the items I'm about to list?
Give bare numbers, in mg/kg.

compound | TD50 / mg/kg
CCn1cc(C(=O)O)c(=O)c2ccc(C)nc21 [Nalidixic Acid, nalidixic acid] | 187

// next entry
What value of measured TD50 is listed for CCn1cc(C(=O)O)c(=O)c2cc3c(cc21)OCO3 [Oxolinic Acid, oxolinic acid] ?
4.5

---

# procedure_text: General pharmacology screen in rats
# condition_info: rat, in vivo, po, vertical bar loss, doses given in mg./kg, read-out: ED50 Vert. Bar
quantity_name: TD50 (mg/kg)
One number for each entry, in mg/kg.

molecule_smiles | quantity_name | val
CCn1cc(C(=O)O)c(=O)c2cc3c(cc21)OCO3 | TD50 | 187

What value of measured TD50 is listed for CCn1cc(C(=O)O)c(=O)c2ccc(C)nc21 ?
360

---

# procedure_text: General pharmacology screen in rats
# condition_info: in vivo; rat, oral; doses given in mg./kg; read-out: ED50 24-Hour Mort.
quantity_name: LD50 at 24 h

molecule_smiles | LD50 at 24 h
CCn1cc(C(=O)O)c(=O)c2cc3c(cc21)OCO3 | > 324 mg/kg

// next entry
What value of measured LD50 at 24 h is listed for CCn1cc(C(=O)O)c(=O)c2ccc(C)nc21 ?
> 324 mg/kg

---

# procedure_text: General pharmacology screen in mice
# condition_info: mouse, in vivo, po, ED50 Anoroxia; 15 or fewer milk spots consumed by 5 mice; doses given in mg./kg
Can you tell me TD50 for the items I'm about to list?

I'm hoping you can list TD50 for every molecule here, please.
1. CCn1cc(C(=O)O)c(=O)c2ccc(C)nc21
2. CCn1cc(C(=O)O)c(=O)c2cc3c(cc21)OCO3
3. O=C(O)c1cn(C(F)F)c2cc3c(cc2c1=O)OCO3

180 mg/kg
21 mg/kg
> 450 mg/kg

---

# procedure_text: General pharmacology screen in mice
# condition_info: mouse, in vivo, po
quantity_name: LD50 at 24 h

I'm hoping you can list LD50 at 24 h for every compound here, please.
1. CCn1cc(C(=O)O)c(=O)c2ccc(C)nc21
2. O=C(O)c1cn(C(F)F)c2cc3c(cc2c1=O)OCO3
3. CCn1cc(C(=O)O)c(=O)c2cc3c(cc21)OCO3

["> 450 mg/kg", "> 450 mg/kg", "> 450 mg/kg"]

---

# procedure_text: General pharmacology screen in rats
# condition_info: rat, in vivo, po, rectal temperature, doses given in mg./kg, read-out: ED50 Hypotherm.
Can you tell me TD50 for the items I'm about to list?

molecule | TD50
O=C(O)c1cn(C(F)F)c2cc3c(cc2c1=O)OCO3 [DFMQ] | > 324 mg/kg
CCn1cc(C(=O)O)c(=O)c2cc3c(cc21)OCO3 [Oxolinic Acid, oxolinic acid] | > 324 mg/kg

// next entry
What value of measured TD50 is listed for CCn1cc(C(=O)O)c(=O)c2ccc(C)nc21 [Nalidixic Acid, nalidixic acid] ?
> 324 mg/kg

---

Can you tell me TD50 for the items I'm about to list?
# procedure_text: General pharmacology screen in rats
# condition_info: rat, in vivo, po, doses given in mg./kg, read-out: ED50 Excitation

I'm hoping you can list TD50 for every compound here, please.
1. CCn1cc(C(=O)O)c(=O)c2ccc(C)nc21 [Nalidixic Acid, nalidixic acid]
2. O=C(O)c1cn(C(F)F)c2cc3c(cc2c1=O)OCO3 [DFMQ]
3. CCn1cc(C(=O)O)c(=O)c2cc3c(cc21)OCO3 [Oxolinic Acid, oxolinic acid]

["> 324 mg/kg", "> 324 mg/kg", "62 mg/kg"]

---

Can you tell me TD50 for the items I'm about to list?
# procedure_text: General pharmacology screen in rats
# condition_info: rat, in vivo, po, doses given in mg./kg, read-out: ED50 Ataxia
Numbers only, in mg/kg.

molecule | unit_of_measurement | val
CCn1cc(C(=O)O)c(=O)c2cc3c(cc21)OCO3 [Oxolinic Acid, oxolinic acid] | mg/kg | 97

What value of measured TD50 is listed for CCn1cc(C(=O)O)c(=O)c2ccc(C)nc21 [Nalidixic Acid, nalidixic acid] ?
187
